System: PA-1
METHOD: Primary qHTS to identify gynecologic anti-cancer compounds using libraries of approved drugs and bioactive compounds (AID 1345084); further: nearly all actives have a fitted effect of over 55% in size; further: potency means the concentration at half of the fitted maximal effect
MEASUREMENT CONTEXT: Gynecologic cancer cell panel viability, ATPlite luminescence, 48 h; series mostly up to 57.5 µM
Results filed as inconclusive are left out. Active and inactive are the calls of the source. The call rests on the fitted dose curve; in most records, active means well fitted cell-killing curve with a large enough effect; inconclusive means small, poorly fitted or top-dose-only effect, or effect the other way; inactive means flat fitted curve, though single readings scatter.
READOUT: Potency

Example entries and their recorded answers appear below.
>>> recorded_result("CC[C@H](C(=O)Nc1ccccc1N1CCCC1)c1ccccc1")
"inactive"
>>> recorded_result("CC(C)(C)c1ccc(C(=O)Nc2cn3cc(-n4ccnc4)ccc3n2)cc1")
"inactive"
>>> recorded_result("O=c1cc(N2CCOCC2)nc2c3ccccc3ccn12")
"inactive"
>>> recorded_result("C[C@H](CN(C)C)Oc1nc(Nc2cc3cccc(Cl)c3cn2)cnc1C#N")
"inactive"
>>> recorded_result("O=C(NCCCN1CCC2(CC1)OCc1ccccc12)[C@H]1CCCN1Cc1ccccc1")
"inactive"

Could I get Potency for every one of these entries?
1. CC(C)c1ccc(NC(=O)c2cccs2)c(-c2nc3ccccc3[nH]c2=O)c1
2. Cc1cn2c(n1)Cc1ccc(Cl)cc1C(c1ccc(N)cc1)=N2
3. C=C[C@@]1(C)C=C2C(=O)C(O)=C3[C@](C)(C(=O)O)CC[C@@H]4C[C@]34[C@]2(O)C(=O)C1
4. COc1ccccc1N1CCN(c2ncnc3n[nH]c(Br)c23)CC1
5. O=C(NS(=O)(=O)c1ccc(Br)s1)c1ccc(Cl)cc1Cl

(A)
inactive
inactive
11.2 µM (active)
inactive
inactive

Give one value of Potency per listed compound.
1. CCCSc1nc(N[C@@H]2C[C@H]2c2ccc(F)c(F)c2)c2nnn([C@@H]3C[C@H](OCCO)[C@@H](O)[C@H]3O)c2n1
2. C=C1C(=O)OC2CC(C)C(CCC(C)=O)=CCC12 (centres undefined)
3. C[C@@H]1C[C@H](C)CN(CCC(=O)Nc2ccc(Br)cc2)C1
4. C/C(=C/C=C\C=C\Cc1cnco1)[C@@H](O)C(C)(C)C(N)=O
5. CC(C)(F)CC(NC(c1ccc(-c2ccc(S(C)(=O)=O)cc2)cc1)C(F)(F)F)C(=O)NC1(C#N)CC1 (centres undefined)
6. C=CC(C)(C)c1[nH]c2ccccc2c1C[C@@H]1NC(=O)[C@H](C)NC1=O
7. Cc1cc(F)c(C(=O)Nc2cccc(-c3nncn3C(C)C)n2)cc1-n1cnc(C2CC2)c1

(A)
1. inactive
2. inactive
3. inactive
4. inactive
5. inactive
6. inactive
7. inactive

For each listed entry, give its Potency.
1. O=C(NCCCNC(=O)c1ccc[nH]c1=O)c1cc(-c2ccccc2)on1
2. COC(C)(C)CCn1nc(Nc2c(C)cccc2C)c2cnc(Nc3ccc(OCCN4CCCC4)c(F)c3)nc21

(A)
1. 8.91 µM (active)
2. 2.82 µM (active)

----------
METHOD: Primary fluorescence-based thiol-reactive (MSTI) qHTS assay for identification of artifact compounds. (AID 1845221); further: nearly all actives have a fitted effect of over 65% in size
MEASUREMENT CONTEXT: MSTI thiol-reactivity probe, 1 h; series mostly up to 53.8 µM
Inconclusive results are not listed. Active and inactive are the calls of the source. Calls follow the shape of the dose curve; as a rule, active = well fitted inhibition curve with a large enough effect; inconclusive = small, poorly fitted or top-dose-only effect; inactive = no such curve, though single readings can be large or run the other way.
API: response.call in active, inactive

These recorded examples may help you get a feel for the data.
>>> assigned_label("CC(C)n1nc(C#Cc2ccccc2)c2c(N)ncnc21")
"inactive"
>>> assigned_label("O=C(Nc1ncc([N+](=O)[O-])s1)c1ccccc1O")
"active"
>>> assigned_label("C[C@@H](NC(=O)c1ccc(C#Cc2cccc(F)c2)cn1)C(C)(C)O")
"inactive"
>>> assigned_label("COC1=CC(=O)C=C(C)C12Oc1c(Cl)c(OC)cc(OC)c1C2=O (stereo not given)")
"inactive"

Now take the following compound into account.
(Q) Name the outcome recorded for COc1cc(N2CCOCC2)ccc1NC(=O)c1csc(-c2cccnc2)n1 in the assay.
(A) active
